ASSAY_COMMENT: NCI Yeast Anticancer Drug Screen. Data for the mlh1 rad18 strain (AID 175)
CONDITIONS_USED: S. cerevisiae mlh1 rad18 strain growth inhibition; at 50.0 µM; hits give high values
This is part of a sample that, as a whole, favours compounds with a hit. Of some 79,000 tested, about 15% had one in any assay.
QUANTITY_NAME: growth inhibition (%)

COMPOUND	QUANTITY_NAME	RESULT_VALUE
Cc1ccc(S(=O)(=O)O/N=C2\CCC\C2=C/c2ccccc2)cc1	growth inhibition	23.8
CCN(CC)CCC(=O)c1ccc(C)cc1	growth inhibition	-23.1
CC1CCCCNC1=S (stereo not given)	growth inhibition	27.1
CC1(CO)OC(n2cnc3c(N)ncnc32)C(O)C1O (stereo not given)	growth inhibition	-29.2
NC(=O)Nc1ccc(Cl)cc1[N+](=O)[O-]	growth inhibition	-7.1
Cc1ccc2c(c1)CCC(=O)O2	growth inhibition	3.4
Cc1nnc2n(c1=O)CCN2C	growth inhibition	26.2
CCN(CCNc1cc(OC)cc2cccnc12)CC(C)C	growth inhibition	17
O=C1CCN2C=CC=CC2=N1	growth inhibition	6.95
Cc1cc(C(c2ccc(Nc3ccccc3)cc2)c2ccc(Nc3ccccc3)cc2)ccc1Nc1ccccc1	growth inhibition	-19.1
c1ccc(B2OB(c3ccccc3CN3CCCC3)OB(c3ccccc3CN3CCCC3)O2)c(CN2CCCC2)c1	growth inhibition	15.4
COc1ccccc1CC(C)N1CCCC1c1ccccc1 (stereo not given)	growth inhibition	3.4
O=C(/C=C\c1ccccc1)OCC(=O)c1ccc(-c2ccccc2)cc1	growth inhibition	4.4
O=c1[nH]c2cc([N+](=O)[O-])ccc2nc1/C(=N/Nc1ccccc1)C(O)c1ccco1 (stereo not given)	growth inhibition	25.3
O=C(O)CCC(=O)Nc1ccccc1C(=O)O	growth inhibition	-4.5
NC(N)=NS(=O)(=O)c1ccc(Nc2c3ccccc3nc3c(C(=O)Nc4ccc(S(N)(=O)=O)cc4)ccc(Cl)c23)cc1	growth inhibition	7.85
Cn1c2nc(-[n+]3ccc(N4CCOCC4)cc3)nc-2c([O-])n(C)c1=O	growth inhibition	-11.7
O=C(O)c1[nH]c(=O)[nH]c(=O)c1CN1CCCCC1	growth inhibition	-0.75
COc1ccccc1C1OC(C)C(C)O1 (stereo not given)	growth inhibition	-16.3
Nc1ccc(Nc2cc(=O)[nH]c(=O)[nH]2)cc1Cl	growth inhibition	-20.8
